- target.desc: HDAC3 (Homo sapiens, UniProt O15379)
- Construct: purchased Reaction Biology Corporation (assay run by the CRO)
- Sequence (O15379 whole entry): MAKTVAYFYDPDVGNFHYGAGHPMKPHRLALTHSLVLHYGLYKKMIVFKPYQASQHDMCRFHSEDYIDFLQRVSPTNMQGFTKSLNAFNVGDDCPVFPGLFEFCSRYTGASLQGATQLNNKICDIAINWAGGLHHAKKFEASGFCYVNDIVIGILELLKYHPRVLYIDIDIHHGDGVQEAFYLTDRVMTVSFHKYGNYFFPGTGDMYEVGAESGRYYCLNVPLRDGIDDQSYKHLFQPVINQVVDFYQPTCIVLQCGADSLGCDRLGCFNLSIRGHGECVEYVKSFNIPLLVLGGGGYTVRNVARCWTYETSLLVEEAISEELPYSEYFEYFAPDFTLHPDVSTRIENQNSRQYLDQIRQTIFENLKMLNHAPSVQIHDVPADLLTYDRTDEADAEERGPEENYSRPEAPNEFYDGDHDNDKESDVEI
- Sequence (Q9Y618 395-489 partner limits assumed): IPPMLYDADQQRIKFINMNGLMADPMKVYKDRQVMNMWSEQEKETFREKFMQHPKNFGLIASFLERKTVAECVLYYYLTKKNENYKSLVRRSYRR
- assay.method.text: HDAC3 inhibition, full IC50 measurement (Reaction Biology; fluorogenic p53 peptide RHKK(Ac)AMC)
- Type: biochemical
- setup.conditions: Conc. 3.33E-06 M, t1
Peptide text beside a SMILES is read from it.
// HDAC3 activity raw data (signal) lookup, one value per entry
Response field accepts a number only; no unit should be typed.

Some compounds with known HDAC3 activity raw data (signal) results, for comparison:
• CC(C)C[C@H]1NC(=O)[C@H](Cc2c[nH]c3ccccc23)NC(=O)[C@H](CCCCCS)NC(=O)[C@@H](Cc2ccc(O)cc2)NC(=O)[C@@H](C(C)C)NC(=O)[C@H](Cc2c[nH]cn2)NC(=O)CNC(=O)CNC(=O)[C@@H](CO)NC1=O [des2.2.0, SHA-Trp-dLeu-dSer-Gly-Gly-His-dVal-dTyr] (HELM PEPTIDE1{G.G.H.[dV].[dY].[O=C([C@H](CCCCCS)N[*:1])[*:2]].W.[dL].[dS]}$PEPTIDE1,PEPTIDE1,1:R1-9:R2$$$V2.0) = 841514
• NCCCC[C@@H]1NC(=O)[C@@H]2CCCN2C(=O)[C@H](CC(N)=O)NC(=O)[C@H](CCCCCS)NC(=O)CNC(=O)[C@H](Cc2c[nH]c3ccccc23)NC(=O)[C@@H](CCCCN)NC(=O)[C@H](CCC(N)=O)NC1=O [des1.1.0, SHA-Asn-Pro-Lys-Gln-dLys-Trp-Gly] (HELM PEPTIDE1{G.[O=C([C@H](CCCCCS)N[*:1])[*:2]].N.P.K.Q.[dK].W}$PEPTIDE1,PEPTIDE1,1:R1-8:R2$$$V2.0) = 23719
• CSCC[C@H]1NC(=O)[C@@H](CO)NC(=O)[C@H](CC(N)=O)NC(=O)[C@H](CC(=O)O)NC(=O)[C@@H]([C@H](C)O)NC(=O)[C@H](Cc2c[nH]c3ccccc23)NC(=O)[C@H](CCCCCS)NC(=O)[C@H](CCCCN)NC(=O)[C@@H](CC(=O)O)NC1=O [des2.1.1, SHA-Trp-dThr-Asp-Asn-dSer-dMet-dAsp-Lys] (HELM PEPTIDE1{D.N.[dS].[dM].[dD].K.[O=C([C@H](CCCCCS)N[*:1])[*:2]].W.[dT]}$PEPTIDE1,PEPTIDE1,1:R1-9:R2$$$V2.0) = 22832
• N=C(N)NCCC[C@H]1NC(=O)[C@@H]2CCCN2C(=O)[C@H](CO)NC(=O)[C@@H](Cc2c[nH]cn2)NC(=O)[C@H](CCCCCS)NC(=O)[C@H](CCCCN)NC(=O)[C@H](Cc2ccc(O)cc2)NC(=O)[C@H]2CCCN2C(=O)[C@@H](CCC(N)=O)NC1=O [des3.1.0, SHA-dHis-Ser-Pro-dArg-dGln-dPro-Tyr-Lys] (HELM PEPTIDE1{K.[O=C([C@H](CCCCCS)N[*:1])[*:2]].[dH].S.P.[dR].[dQ].[dP].Y}$PEPTIDE1,PEPTIDE1,1:R1-9:R2$$$V2.0) = 127237
• N=C(N)NCCC[C@@H]1NC(=O)[C@H](Cc2c[nH]c3ccccc23)NC(=O)[C@H](CC(=O)O)NC(=O)[C@@H](CO)NC(=O)[C@H](Cc2c[nH]c3ccccc23)NC(=O)[C@H](CCCCCS)NC(=O)[C@H](CCC(N)=O)NC1=O [des4.1.0, SHA-Trp-dSer-Asp-Trp-Arg-Gln] (HELM PEPTIDE1{D.W.R.Q.[O=C([C@H](CCCCCS)N[*:1])[*:2]].W.[dS]}$PEPTIDE1,PEPTIDE1,1:R1-7:R2$$$V2.0) = 16525
• CC(C)[C@@H]1NC(=O)[C@H](CCCNC(=N)N)NC(=O)[C@@H](CC(=O)O)NC(=O)[C@H](CO)NC(=O)[C@@H](CO)NC(=O)[C@@H](CCC(=O)O)NC(=O)[C@H](Cc2ccc(O)cc2)NC(=O)[C@H](CCCCCS)NC1=O [des4.2.0, SHA-Tyr-dGlu-dSer-Ser-dAsp-Arg-Val] (HELM PEPTIDE1{R.V.[O=C([C@H](CCCCCS)N[*:1])[*:2]].Y.[dE].[dS].S.[dD]}$PEPTIDE1,PEPTIDE1,1:R1-8:R2$$$V2.0) = 71800
• NCCCC[C@H]1NC(=O)[C@H](CCC(N)=O)NC(=O)[C@H](CCC(=O)O)NC(=O)[C@@H]2CCCN2C(=O)[C@H](CC(N)=O)NC(=O)[C@H](CCCCCS)NC(=O)CNC(=O)[C@H](Cc2c[nH]c3ccccc23)NC1=O [des1.1.1, SHA-Asn-Pro-Glu-Gln-dLys-Trp-Gly] (HELM PEPTIDE1{E.Q.[dK].W.G.[O=C([C@H](CCCCCS)N[*:1])[*:2]].N.P}$PEPTIDE1,PEPTIDE1,1:R1-8:R2$$$V2.0) = 128090
• C[C@H](O)[C@H]1NC(=O)[C@H](Cc2c[nH]c3ccccc23)NC(=O)[C@H](CCCCCS)NC(=O)[C@H](CCCCN)NC(=O)[C@@H](CC(=O)O)NC(=O)[C@@H](CCCCN)NC(=O)[C@@H](CO)NC(=O)[C@H](CC(N)=O)NC(=O)[C@H](CC(=O)O)NC1=O [des2.1.0, SHA-Trp-dThr-Asp-Asn-dSer-dLys-dAsp-Lys] (HELM PEPTIDE1{D.N.[dS].[dK].[dD].K.[O=C([C@H](CCCCCS)N[*:1])[*:2]].W.[dT]}$PEPTIDE1,PEPTIDE1,1:R1-9:R2$$$V2.0) = 35860

Consider the additional compound presented here.
Exercise: Determine its reported HDAC3 activity raw data (signal): CCCC[C@H]1NC(=O)[C@H](Cc2ccccc2)NC(=O)[C@H](CCCCCS)NC(=O)[C@@H](CCCNC(=N)N)NC(=O)[C@H](CC(=O)O)NC(=O)[C@@H](CO)NC(=O)[C@@H](C)NC(=O)[C@H](CCCCN)NC1=O [des4.3.1, SHA-Phe-dNle-Lys-dAla-dSer-Asp-dArg] (HELM PEPTIDE1{D.[dR].[O=C([C@H](CCCCCS)N[*:1])[*:2]].F.[CCCC[C@@H](N[*:1])C(=O)[*:2]].K.[dA].[dS]}$PEPTIDE1,PEPTIDE1,1:R1-8:R2$$$V2.0)
Key: 172249
